Test: Plasma pharmacokinetics (LC-MS/MS)
Type: in vivo, human
Settings: human, plasma, oral, 400 mg, C1D15, 400 mg BID, n=4; read-out: AUC0-t, Mean (SD)
Description: In the dose escalation part of the study, PK samples were collected at various pre- and post-dose time points on C1D1, D2, D3, D15 and D16. Drug concentrations were assessed using a validated liquid chromatography-tandem mass spectrometry assay.
experimental.endpoint: AUC(0-t)
Reply with the number and its unit after it.

# input Look up and state reported AUC(0-t) for "CC1(N)CCN(c2cccnc2NC(=O)c2nc(-c3ncccc3C(F)(F)F)cnc2N)CC1"
# output 15900 ng·h/mL

---

Experiment: Plasma pharmacokinetics (LC-MS/MS)
Format: in vivo, human
Conditions: human, plasma, oral, 100 mg, C1D1, 100 mg QD, n=2; read-out: T1/2, Mean (SD) (converted)
experimental.endpoint: half-life

# input State, in one line, measured half-life of CC1(N)CCN(c2cccnc2NC(=O)c2nc(-c3ncccc3C(F)(F)F)cnc2N)CC1 [LXS196]
# output 509 min

---

Assay: Plasma pharmacokinetics (LC-MS/MS)
Assay type: in vivo, human
Settings: human, plasma, oral, 400 mg, C1D1, 400 mg BID, n=5; read-out: AUC0-t, Mean (SD)
experimental.endpoint: AUC(0-t) (ng·h/mL)
Return type: number; implicit unit ng·h/mL.

# input Kindly indicate its recorded AUC(0-t). Item: "CC1(N)CCN(c2cccnc2NC(=O)c2nc(-c3ncccc3C(F)(F)F)cnc2N)CC1"
# output 18100

---

Experiment: Plasma pharmacokinetics (LC-MS/MS)
Format: in vivo, human
Settings: human, plasma, oral, 300 mg, C1D15, 300 mg QD, n=14; read-out: Cmax, Mean (SD)
Description: In the dose escalation part of the study, PK samples were collected at various pre- and post-dose time points on C1D1, D2, D3, D15 and D16. Drug concentrations were assessed using a validated liquid chromatography-tandem mass spectrometry assay.
experimental.endpoint: Cmax (ng/mL)
Field: numeric (ng/mL). Do not append units.

# input Return reported Cmax. Input compound: "CC1(N)CCN(c2cccnc2NC(=O)c2nc(-c3ncccc3C(F)(F)F)cnc2N)CC1"
# output 3860

---

Test: Plasma pharmacokinetics (LC-MS/MS)
Format: in vivo, human
Details: human, plasma, oral, 300 mg, C1D1, 300 mg QD, n=15; read-out: AUCinf, Mean (SD)
experimental.endpoint: AUC(0-inf) (ng·h/mL)
Kindly provide the numeric value in ng·h/mL only, without the unit symbol.

# input Return AUC(0-inf) (reported value) for this compound: "CC1(N)CCN(c2cccnc2NC(=O)c2nc(-c3ncccc3C(F)(F)F)cnc2N)CC1"
# output 51300

---

Experiment: Plasma pharmacokinetics (LC-MS/MS)
Assay type: in vivo, human
Conditions: human, plasma, oral, 200 mg, C1D15, 200 mg BID, n=5; read-out: Cmin, Median (Min, max)
Experimental: In the dose escalation part of the study, PK samples were collected at various pre- and post-dose time points on C1D1, D2, D3, D15 and D16. Drug concentrations were assessed using a validated liquid chromatography-tandem mass spectrometry assay.
experimental.endpoint: concentration at 15 day (ng/mL)
Reply numerically in ng/mL, unit not repeated.

# input Supply recorded concentration at 15 day for "CC1(N)CCN(c2cccnc2NC(=O)c2nc(-c3ncccc3C(F)(F)F)cnc2N)CC1" here.
# output 883
